experimentalTarget: Sodium-dependent dopamine transporter (Rattus norvegicus, UniProt P23977)
Sequence (P23977 whole entry): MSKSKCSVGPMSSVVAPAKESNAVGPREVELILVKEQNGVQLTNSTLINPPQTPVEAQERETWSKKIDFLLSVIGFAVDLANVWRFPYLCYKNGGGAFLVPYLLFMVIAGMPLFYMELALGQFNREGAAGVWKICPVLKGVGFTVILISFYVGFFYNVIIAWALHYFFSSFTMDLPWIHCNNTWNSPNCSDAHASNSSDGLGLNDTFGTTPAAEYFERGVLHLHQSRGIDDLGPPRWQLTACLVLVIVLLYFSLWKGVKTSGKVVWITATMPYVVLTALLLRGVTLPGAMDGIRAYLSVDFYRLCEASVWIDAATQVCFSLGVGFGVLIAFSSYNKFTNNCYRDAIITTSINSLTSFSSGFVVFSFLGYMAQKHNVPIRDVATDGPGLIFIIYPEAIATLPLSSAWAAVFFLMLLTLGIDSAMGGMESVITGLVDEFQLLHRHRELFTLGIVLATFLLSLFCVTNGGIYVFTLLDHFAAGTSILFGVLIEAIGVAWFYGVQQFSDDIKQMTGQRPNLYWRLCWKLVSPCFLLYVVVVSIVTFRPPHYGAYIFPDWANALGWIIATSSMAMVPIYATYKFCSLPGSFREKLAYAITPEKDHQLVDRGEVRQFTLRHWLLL
In plain terms, low Ki, meaning strictly below 100 nM, gives Condition met, and everything else gives Condition not met.

Query: Does this compound meet the criterion Ki < 100 nM? `C[C@@H]1CN(CCCN(c2ccccc2)c2ccccc2)C[C@@H](C)N1CCCc1ccccc1`
Result: Condition met

Query: Item `C[C@@H]1CN(CCCN(c2ccc(F)cc2)c2ccc(F)cc2)C[C@@H](C)N1` : Ki beneath 100 nM, strictly?
Result: Condition met

Query: I'd appreciate it if you could check whether `C[C@@H]1CN(CCCN(c2ccc(F)cc2)c2ccc(F)cc2)C[C@@H](C)N1CCc1ccc(Cl)c(Cl)c1` has Ki smaller than 100 nM.
Result: Condition not met

Query: For this compound, is Ki lower than 100 nM? `C[C@@H]1CN(CCCN(c2ccccc2)c2ccccc2)C[C@@H](C)N1`
Result: Condition not met

Query: For `C[C@@H]1CN(CCCN(c2ccc(F)cc2)c2ccc(F)cc2)C[C@@H](C)N1CCCc1ccccc1` , is the recorded Ki below the cut-off of 100 nM?
Result: Condition met

###

Test system: Monoamine transporters; Norepinephrine & dopamine (Rattus norvegicus)
procedureDetails: Selectivity ratio of DAT to that of NET receptor
For each record, write down the corresponding Ratio.
Respond numerically, and do not add a unit to the figure.

Query: Give Ratio for this entry on Monoamine transporters; Norepinephrine & dopamine (Rattus norvegicus): `C[C@@H]1CN(CCCN(c2ccc(F)cc2)c2ccc(F)cc2)C[C@@H](C)N1`
Result: 203

Query: Provide Ratio, tested on Monoamine transporters; Norepinephrine & dopamine (Rattus norvegicus), for `C[C@@H]1CN(CCCN(c2ccccc2)c2ccccc2)C[C@@H](C)N1` .
Result: 8

Query: Retrieve Ratio on Monoamine transporters; Norepinephrine & dopamine (Rattus norvegicus); query `C[C@@H]1CN(CCCN(c2ccc(F)cc2)c2ccc(F)cc2)C[C@@H](C)N1CCCc1ccccc1`
Result: 60

Query: Report value only: Ratio, Monoamine transporters; Norepinephrine & dopamine (Rattus norvegicus), `C[C@@H]1CN(CCCN(c2ccccc2)c2ccccc2)C[C@@H](C)N1CCCc1ccccc1`
Result: 60

###

experimentalTarget: Sodium-dependent serotonin transporter (Rattus norvegicus, UniProt P31652)
Sequence (P31652 whole entry): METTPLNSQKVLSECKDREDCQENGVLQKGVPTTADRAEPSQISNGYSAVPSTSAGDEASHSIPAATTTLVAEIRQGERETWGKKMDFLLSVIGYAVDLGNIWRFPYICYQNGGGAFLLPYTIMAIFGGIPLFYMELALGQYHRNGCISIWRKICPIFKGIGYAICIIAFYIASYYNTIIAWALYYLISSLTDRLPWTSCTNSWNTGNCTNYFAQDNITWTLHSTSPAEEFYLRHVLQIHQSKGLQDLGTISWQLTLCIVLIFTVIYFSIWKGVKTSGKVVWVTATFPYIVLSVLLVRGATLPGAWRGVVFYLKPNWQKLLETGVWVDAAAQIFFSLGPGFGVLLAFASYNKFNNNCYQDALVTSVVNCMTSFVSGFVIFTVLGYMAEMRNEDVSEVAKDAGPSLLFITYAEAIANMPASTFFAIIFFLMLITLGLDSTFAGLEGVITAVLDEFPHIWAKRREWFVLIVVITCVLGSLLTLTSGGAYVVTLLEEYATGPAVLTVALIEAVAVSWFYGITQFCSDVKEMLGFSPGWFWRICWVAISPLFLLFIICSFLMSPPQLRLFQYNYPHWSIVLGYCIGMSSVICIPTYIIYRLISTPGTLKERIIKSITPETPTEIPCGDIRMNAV
outcomeMeasure: Ki (nM)
Hi! Could you send only the number? It should be in nM, unit omitted.

Query: Quote Ki with test system Sodium-dependent serotonin transporter (Rattus norvegicus, UniProt P31652) for CC1CN(CCCn2c3ccccc3c3ccccc32)C[C@@H](C)N1 (single isomer, unassigned)
Result: 1710

###

Please respond with reported Horizontal activity for every item in the list.
System: Mus musculus
procedureDetails: Tested for rate of horizontal activity during a 30-min period after administration of compound at a concentration of 10 mg/kg
Type: functional
The reply should contain only the number, in Counts min-1.

Query: Name the recorded Horizontal activity of the molecule listed here: `Fc1ccc(C(OCCN2CCN(CCCc3ccccc3)CC2)c2ccc(F)cc2)cc1`
Result: 300

Query: Give a short answer stating reported Horizontal activity for COC(=O)[C@@H]1C2CC[C@@H](C[C@@H]1OC(=O)c1ccccc1)N2C (single isomer, unassigned) .
Result: 500

###

Please respond with reported Ratio for every item in the list.
System: Monoamine transporters; serotonin & dopamine (Rattus norvegicus)
procedureDetails: Selectivity ratio for DAT to SERT evaluated
# print the numeric value only

Query: Report measured Ratio; entry is `C[C@@H]1CN(CCCN(c2ccc(F)cc2)c2ccc(F)cc2)C[C@@H](C)N1`
Result: 158

Query: Specify measured Ratio for `C[C@@H]1CN(CCCN(c2ccccc2)c2ccccc2)C[C@@H](C)N1` .
Result: 87

Query: Identify measured Ratio corresponding to `C[C@@H]1CN(CCCN(c2ccc(F)cc2)c2ccc(F)cc2)C[C@@H](C)N1CCCc1ccccc1`
Result: 121

Query: Give Ratio for `C[C@@H]1CN(CCCN(c2ccccc2)c2ccccc2)C[C@@H](C)N1CCCc1ccccc1`
Result: 20

These measurements were taken from ChEMBL document CHEMBL1134746.
